Data provenance: the NIST ThermoML archive (doi:10.1021/je025606c)

- Settings: 313.15 K; 101.33 kPa; Liquid; Capillary tube (Ostwald / Ubbelohde) method
// reported kinematic viscosity for each item listed
The figure you give is taken to be in m2/s; do not add the unit.

Illustrative cases are given below, each with its answer.
CCCCOCCOCCOCCCC | 1.86e-06
CCCCOCCOCCOCCOCCCC | 2.7e-06
COCC(C)OCC(C)OC (centres undefined) | 9.03e-07

With those in mind, consider the next molecule.
Ask | Form field: reported kinematic viscosity of CCOCCOCCOCC
Reply | 1.09e-06

* * *

- Settings: 383.15 K; 1000 kPa; Liquid; Vibrating tube method
Decision: mass density compared against 800 kg/m3; not below it gives condition met, below it gives condition not met.

CCOCCOCC | condition not met

API: the following record is the query input.
Ask | Check the entry CCCCOCCOCCOCCOCCCC : does mass density equal or exceed 800 kg/m3?
Reply | condition met

* * *

- Settings: 353.15 K; 1000 kPa; Liquid; Vibrating tube method
// reported mass density for each item listed
The figure you give is taken to be in kg/m3; do not add the unit.

Illustrative cases are given below, each with its answer.
CCCCOCCOCCOCCOCCCC | 868.2
CCOCCOCCOCC | 850
COCC(C)OCC(C)OC (stereo not given) | 846.9
CCOCCOCC | 790.5

With those in mind, consider the next molecule.
Ask | Form field: reported mass density of CCCCOCCOCCOCCCC
Reply | 833.7

* * *

- Settings: 283.15 K; 101.33 kPa; Liquid; Capillary tube (Ostwald / Ubbelohde) method
Readout Label: kinematic viscosity (m2/s)
The figure you give is taken to be in m2/s; do not add the unit.

Ask | Form field: reported kinematic viscosity of CCCCOCCOCCOCCOCCCC [5,8,11,14-tetraoxaoctadecane]
Reply | 5.42e-06

Ask | Form field: reported kinematic viscosity of COCC(C)OCC(C)OC (centres undefined) [2-methoxy-1-(2-methoxy-1-methylethoxy)propane]
Reply | 1.41e-06

Ask | Form field: reported kinematic viscosity of CCOCCOCCOCC [diethylene glycol diethyl ether]
Reply | 1.84e-06

Ask | Form field: reported kinematic viscosity of CCCCOCCOCCOCCCC [5,8,11-trioxapentadecane]
Reply | 3.36e-06

* * *

- Settings: 363.15 K; 101.33 kPa; Liquid; Capillary tube (Ostwald / Ubbelohde) method
Readout Label: kinematic viscosity (m2/s)
The figure you give is taken to be in m2/s; do not add the unit.

Illustrative cases are given below, each with its answer.
CCOCCOCCOCC [diethylene glycol diethyl ether] | 6.33e-07
COCC(C)OCC(C)OC (centres undefined) [2-methoxy-1-(2-methoxy-1-methylethoxy)propane] | 5.51e-07

Ask | Form field: reported kinematic viscosity of CCCCOCCOCCOCCCC [5,8,11-trioxapentadecane]
Reply | 9.68e-07

Ask | Form field: reported kinematic viscosity of CCCCOCCOCCOCCOCCCC [5,8,11,14-tetraoxaoctadecane]
Reply | 1.3e-06

* * *

- Settings: 313.15 K; 1000 kPa; Liquid; Vibrating tube method
Readout Label: mass density (kg/m3)
The figure you give is taken to be in kg/m3; do not add the unit.

Illustrative cases are given below, each with its answer.
CCCCOCCOCCOCCOCCCC [5,8,11,14-tetraoxaoctadecane] | 901.2
CCCCOCCOCCOCCCC [5,8,11-trioxapentadecane] | 866.8
COCC(C)OCC(C)OC (stereo not given) [2-methoxy-1-(2-methoxy-1-methylethoxy)propane] | 884.8
CCOCCOCCOCC [diethylene glycol diethyl ether] | 889

With those in mind, consider the next compound.
Ask | Form field: reported mass density of CCOCCOCC [1,2-diethoxyethane]
Reply | 832.3
